Target: T1, Human GPA33 on GPA33+ colorectal cancer cell lines (Colo 205, LS 174T, SW 1222) (human, UniProt Q99795 22-319)
T1 construct: Endogenous GPA33 on human colorectal cancer cell lines; also called surface human GPA33; GPA33+ tumor cell lines
T1 sequence: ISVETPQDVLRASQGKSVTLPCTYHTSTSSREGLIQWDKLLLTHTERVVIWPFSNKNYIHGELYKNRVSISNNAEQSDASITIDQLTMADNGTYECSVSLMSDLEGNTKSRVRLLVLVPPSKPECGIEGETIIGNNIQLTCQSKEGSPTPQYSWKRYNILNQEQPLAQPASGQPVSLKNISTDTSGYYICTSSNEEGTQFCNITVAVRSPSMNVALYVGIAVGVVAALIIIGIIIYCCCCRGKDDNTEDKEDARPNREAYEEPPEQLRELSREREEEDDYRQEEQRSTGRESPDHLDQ
Test: cell binding to LS174T Luc cells; IgG format
Consider the following binders; for each one, report its EC50.
// return numeric value only (unit: µg/mL, not printed)

Entry G3A_VK5+VH3 (antibody, V domains shown) VH: EVQLVESGGGLVKPGGSLRLSCAASGFAFSTYDMSWVRQAPGKGLEWVATISSGGSYTYYADSVKGRFTISRDSAKNSLYLQMNSLRAEDTAVYYCAPTTVVPFAYWGQGTLVTVSA VL: DIQMTQSPSSLSASVGDRVTITCKASQNVRTVVAWYQQKPGKAPKTLIYLASNRHTGVPSRFSGSGSGTEFTLTISNLQPEDFATYYCLQHWSYPLTFGSGTKLEVK needs its EC50 filled in; supply it.
0.424

Entry G3A_VK7+VH1 (antibody, V domains shown) VH: EVQLVESGGGLVKPGGSLRLSCAASGFAFSTYDMSWVRQAPGKGLEWVSTISSGGSYTYYADSVKGRFTISRDNAKNSLYLQMNSLRAEDTAVYYCAPTTVVPFAYWGQGTLVTVSA VL: DIQMTQSPSSLSASVGDRVTITCKASQNVRTVVAWYQQKPGKAPKRLIYLASNRHTGVPSRFSGSGSGTEFTLTISNVQPEDFATYYCLQHWSYPLTFGSGTKLEVK needs its EC50 filled in; supply it.
0.481

Entry G3A_VK4+VH3 (antibody, IgG1, V domains shown) VH: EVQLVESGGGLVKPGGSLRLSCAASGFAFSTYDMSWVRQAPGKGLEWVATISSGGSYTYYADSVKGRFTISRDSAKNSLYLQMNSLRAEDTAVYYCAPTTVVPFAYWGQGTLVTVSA VL: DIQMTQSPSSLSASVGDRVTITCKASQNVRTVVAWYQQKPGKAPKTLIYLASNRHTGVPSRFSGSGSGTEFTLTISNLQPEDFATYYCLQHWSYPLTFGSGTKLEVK needs its EC50 filled in; supply it.
0.279
